Reference for the values: patent US9040707B2

# Study system: human mGluR5 receptor (Homo sapiens)
# Construct: expressed in transfected cells; host or cells: HEK-293
# Sequence (P41594 21-1180 isoform P41594-2 limits assumed): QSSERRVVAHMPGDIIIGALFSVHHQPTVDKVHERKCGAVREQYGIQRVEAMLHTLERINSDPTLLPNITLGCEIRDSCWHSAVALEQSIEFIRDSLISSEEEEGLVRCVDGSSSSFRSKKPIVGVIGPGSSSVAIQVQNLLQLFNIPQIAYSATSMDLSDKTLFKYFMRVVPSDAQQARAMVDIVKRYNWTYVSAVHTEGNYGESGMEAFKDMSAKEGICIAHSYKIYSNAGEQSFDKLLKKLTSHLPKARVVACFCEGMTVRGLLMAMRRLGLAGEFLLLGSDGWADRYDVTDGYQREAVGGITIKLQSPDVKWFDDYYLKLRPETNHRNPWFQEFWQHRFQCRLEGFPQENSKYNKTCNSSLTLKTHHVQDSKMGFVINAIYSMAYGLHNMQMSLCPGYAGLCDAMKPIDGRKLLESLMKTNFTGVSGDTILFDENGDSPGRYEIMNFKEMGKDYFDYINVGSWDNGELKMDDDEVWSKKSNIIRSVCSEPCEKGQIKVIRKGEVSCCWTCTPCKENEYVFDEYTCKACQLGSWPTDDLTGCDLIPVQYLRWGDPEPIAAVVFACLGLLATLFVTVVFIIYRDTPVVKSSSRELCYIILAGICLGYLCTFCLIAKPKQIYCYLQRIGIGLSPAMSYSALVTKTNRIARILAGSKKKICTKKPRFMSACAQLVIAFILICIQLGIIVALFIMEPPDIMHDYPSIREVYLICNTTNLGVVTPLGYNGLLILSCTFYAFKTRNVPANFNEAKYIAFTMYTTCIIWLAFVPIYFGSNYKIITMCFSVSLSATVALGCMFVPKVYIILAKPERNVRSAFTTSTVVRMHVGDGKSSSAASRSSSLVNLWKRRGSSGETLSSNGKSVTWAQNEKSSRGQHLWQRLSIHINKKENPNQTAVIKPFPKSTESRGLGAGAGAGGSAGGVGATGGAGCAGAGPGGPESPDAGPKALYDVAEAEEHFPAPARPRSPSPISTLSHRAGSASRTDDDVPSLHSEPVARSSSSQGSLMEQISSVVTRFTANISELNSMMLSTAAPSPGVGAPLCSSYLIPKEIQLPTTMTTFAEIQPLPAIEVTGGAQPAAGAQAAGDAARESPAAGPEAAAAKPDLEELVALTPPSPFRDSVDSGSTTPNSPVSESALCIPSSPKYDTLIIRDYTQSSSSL
# Experimental protocol: Functional Assay 1: intracellular Ca2+ mobilization, positive allosteric modulation of glutamate EC20 response
# Type: cell-based
# Reported conditions: original value, which was updated as compound was further tested
Assay readout: EC50 (nM)

# example entries with known answers
| Molecule | Endpoint unit | EC50 |
| --- | --- | --- |
| O=C1c2sc(OCc3cccc(F)c3)nc2CCN1c1ccc(F)cc1F [Compound 17] | nM | 741 |
| O=C1c2sc(OCc3ccccc3)nc2CCN1c1ccc(F)cc1 [Compound 1] | nM | 851 |
| O=C1c2sc(OCc3ccccc3)nc2CCN1Cc1ccc(F)cc1 [Compound 14] | nM | 4470 |

[P] O=C1c2sc(OCc3ccccc3F)nc2CCN1c1ccc(F)cc1F [Compound 18]
[Q] O=C1c2sc(OCc3ccccc3)nc2CCN1Cc1ccccc1F [Compound 16]
Q: Returns the identifier with the smallest measured EC50 among P and Q . Give the label under which the chosen entry appears.
A: P
(P: 513 nM, Q: 3630 nM)

[P] O=C1c2sc(OCc3ccccc3)nc2CCN1c1ccc(F)cc1F [Compound 12]
[Q] O=C1c2sc(OCc3ccccc3)nc2CCN1Cc1cccc(F)c1 [Compound 15]
Q: Returns the identifier with the smallest measured EC50 among P and Q . Give the label under which the chosen entry appears.
A: P
(P: 550 nM, Q: 2570 nM)

###

# Study system: human mGluR5a receptor (Homo sapiens)
# Construct: host or cells: HEK293A (monoclones H10H and H12H)
# Experimental protocol: Functional Assay 2: Ca2+ mobilization, HEK cells with human mGluR5a receptor (H10H cell line)
# Assay type: cell-based
# Reported conditions: HEK293; H10H cell line; maximum average response at a single concentration, relative to glutamate ECMax
Assay readout: Emax (%)

| Sample smiles | Assay readout | Measured |
| --- | --- | --- |
| O=C1c2sc(OCc3cc(F)cc(F)c3)nc2CCN1c1ccc(F)cc1F | Emax | 16 |
| O=C1c2sc(COc3cccc(F)c3)nc2CCN1c1ccc(F)cc1 | Emax | 63 |
| Cc1ccc(N2CCc3nc(COc4ccccc4)sc3C2=O)nc1 | Emax | 84.5 |
| O=C1c2sc(OCc3ccccc3)nc2CCN1Cc1ccc(F)cc1 | Emax | 52 |
| C[C@@H](N1CCc2nc(COc3ccc(F)cc3)sc2C1=O)C(C)(C)C | Emax | 48 |

[P] O=C1c2sc(COc3ccccc3)nc2CCN1c1ccncc1F
[Q] Cc1cccc(COc2nc3c(s2)C(=O)NCC3)c1
[R] C[C@@H](N1CCc2nc(COc3ccccc3F)sc2C1=O)C(C)(C)C
Q: Output the entries ranked by Emax from maximum down to minimum. Answer format: the labels, in the requested order.
A: P, R, Q
(P: 71%, R: 38%, Q: 20%)

[A] Cc1cccc(N2CCc3nc(COc4ccccc4)sc3C2=O)n1
[B] O=C1c2sc(OCc3ccccc3)nc2CCN1c1ccc(F)cc1
[C] CC(C)N1CCc2nc(COc3cccc(F)c3)sc2C1=O
[D] O=C1c2sc(COc3cccc(F)c3)nc2CCN1C1CC1
Q: Exam item: list the entries in increasing order of Emax. Answer format: the labels, in the requested order.
A: C, D, B, A
(C: 18%, D: 39%, B: 57%, A: 84%)

###

Assay readout: melting point

| Compound | Assay readout | Measured |
| --- | --- | --- |
| N#Cc1cccc(COc2nc3c(s2)C(=O)N(c2ccc(F)cc2F)CC3)c1 [Compound 20] | melting point | 112.9 °C |
| O=C1c2sc(COc3ccccc3)nc2CCN1c1cncc(F)c1 [Compound 57] | melting point | 167.6 °C |
| O=C1c2sc(COc3cccc(F)c3)nc2CCN1c1ccc(F)cc1 [Compound 25] | melting point | 152.8 °C |
| O=C1c2sc(OCc3cccc(F)c3)nc2CCN1c1cccc(F)c1 [Compound 27] | melting point | 111.3 to 111.9 °C |
| O=C1c2sc(OCc3ccccc3)nc2CCN1Cc1ccc(F)cc1F [Compound 13] | melting point | 108 to 111.2 °C |
| N#Cc1ccccc1COc1nc2c(s1)C(=O)N(c1ccc(F)cc1F)CC2 [Compound 76] | melting point | 166.1 to 168.3 °C |
| O=C1c2sc(COc3ccccc3F)nc2CCN1C1CC1 [Compound 61] | melting point | 235.8 to 240.2 °C |
| O=C1c2sc(COc3ccccc3)nc2CCN1C1CC1 [Compound 44] | melting point | 252.1 to 255.3 °C |
| O=C1c2sc(OCc3ccccc3)nc2CCN1Cc1ccc(F)cc1 [Compound 14] | melting point | 95.8 to 99 °C |
| N#Cc1ccc(COc2nc3c(s2)C(=O)N(c2ccc(F)cc2F)CC3)cc1 [Compound 75] | melting point | 180.9 to 183.1 °C |

Then this compound:
Q: Dear colleague, I am looking for the recorded melting point of the following compound: O=C1c2sc(OCc3ccccc3C(F)(F)F)nc2CCN1c1ccc(F)cc1F [Compound 81]
A: > 280 °C

###

# Study system: human mGluR5a receptor (Homo sapiens)
# Construct: host or cells: HEK293A (monoclones H10H and H12H)
# Experimental protocol: Functional Assay 2: Ca2+ mobilization, HEK cells with human mGluR5a receptor (H10H cell line)
# Assay type: cell-based
# Reported conditions: HEK293; H10H cell line; maximum average response at a single concentration, relative to glutamate ECMax
Assay readout: Emax (%)

# example entries with known answers
| Sample smiles | Study system | Emax (%) |
| --- | --- | --- |
| O=C1c2sc(COc3ccc(F)cc3)nc2CCN1c1ccc(F)cn1 | human mGluR5a receptor (Homo sapiens) | 56 |
| O=C1c2sc(OCc3cccc(F)c3)nc2CCN1c1ccc(F)cc1F | human mGluR5a receptor (Homo sapiens) | 61 |

[I] O=C1c2sc(OCc3ccccc3F)nc2CCN1c1ccc(F)cc1
[II] O=C1NCCc2nc(COc3ccccc3)sc21
Q: Returns the identifier with the smallest measured Emax among I and II . Give the label under which the chosen entry appears.
A: I

###

# Study system: human mGluR5a receptor (Homo sapiens, UniProt P41594)
# Construct: host or cells: HEK293A (monoclones H10H and H12H)
# Sequence (P41594 21-1180 isoform P41594-2 limits assumed): as above
# Experimental protocol: Functional Assay 3: as Functional Assay 2 but clone H12H
# Format: cell-based
# Reported conditions: maximum average response at a single concentration
# Method: HEK cells transfected with the human mGluR5a receptor (H10H cell line) were plated at 15.000 cells/well in clear-bottomed poly-D-lysine-coated assay plates (BD Falcon) in glutamate-glutamine-free growth medium and incubated overnight at 37° C. and 5% CO2. […] After establishment of a fluorescence baseline for about 3 seconds, the compounds of the present invention were added to the cells, and the response in cells was measured. […]
Assay readout: Emax (%)

| Molecule | Study system | Emax, % |
| --- | --- | --- |
| C[C@@H](N1CCc2nc(COc3cccc(F)c3)sc2C1=O)C(C)(C)C [Compound 7] | human mGluR5a receptor (Homo sapiens, UniProt P41594) | 57 |
| O=C1c2sc(OCc3cccc(F)c3)nc2CCN1c1cccc(C(F)(F)F)c1 [Compound 30] | human mGluR5a receptor (Homo sapiens, UniProt P41594) | 58 |
| C[C@@H](N1CCc2nc(COc3ccccc3)sc2C1=O)C(C)(C)C [Compound 35] | human mGluR5a receptor (Homo sapiens, UniProt P41594) | 60 |
| O=C1c2sc(COc3ccccc3)nc2CCN1c1ccc(F)cc1 [Compound 9] | human mGluR5a receptor (Homo sapiens, UniProt P41594) | 79 |

[1] O=C1c2sc(COc3cccc(F)c3)nc2CCN1c1ccc(F)cc1F [Compound 28]
[2] C[C@@H](N1CCc2nc(OCc3cccc(F)c3)sc2C1=O)C(C)(C)C [Compound 77]
Q: Return label of the item with the larger Emax. Candidates: 1 , 2 . Give the label under which the chosen entry appears.
A: 1

###

# Study system: human mGluR5a receptor (Homo sapiens)
# Construct: host or cells: HEK293A (monoclones H10H and H12H)
# Experimental protocol: Functional Assay 2: Ca2+ mobilization, HEK cells with human mGluR5a receptor (H10H cell line)
# Assay type: cell-based
# Reported conditions: HEK293; H10H cell line; maximum average response at a single concentration, relative to glutamate ECMax
Assay readout: Emax (%)

| Sample smiles | Endpoint unit | Measured |
| --- | --- | --- |
| CN1CCc2nc(OCc3ccccc3)sc2C1=O | % | 45 |
| O=C1c2sc(OCc3ccccc3F)nc2CCN1c1ccc(F)cc1F | % | 72 |
| CN1CCCc2nc(COc3ccccc3)sc2C1=O | % | 70 |

[A] O=C1c2sc(COc3cccc(F)c3)nc2CCN1CC1CC1
[B] N#Cc1cccc(COc2nc3c(s2)C(=O)N(c2ccc(F)cc2F)CC3)c1
Q: Return label of the item with the larger Emax. Candidates: A , B . Give the label under which the chosen entry appears.
A: A
